# PROCEDURE TEXT: Cell viability assay (EZ-Cytox), cytotoxicity
# Assay type: cell-based
# RUN CONDITIONS: human, HepAD38 cells, @100 μM, read-out: Cytotoxicity % Livability (@100 μM)
Measured viability at 65 h, 100 µM of individual entries
Please give a number only; it is taken to be in %.

Recorded viability at 65 h, 100 µM, per entry:
{"MOLECULE": "COC12CC(N(Cc3cc(C(F)(F)F)[nH]n3)C(=O)Nc3cc(F)c(F)c(F)c3)(C1)C2 [Example 222]", "viability at 65 h, 100 µM / %": 2.5}
{"MOLECULE": "COc1ncc(N(Cc2cc(C(F)(F)F)[nH]n2)C(=O)Nc2cc(C(F)F)c(F)cn2)cn1 [Example 192]", "viability at 65 h, 100 µM / %": 104}
{"MOLECULE": "COc1ccc(N(Cc2n[nH]c3c2CC(CO)CC3)C(=O)Nc2ccc(F)c(Cl)c2)cn1 (centres unmarked) [Example 44]", "viability at 65 h, 100 µM / %": 100}
{"MOLECULE": "COc1ncc(N(Cc2cc(C(F)(F)F)[nH]n2)C(=O)Nc2cccc(C(F)F)c2)cn1 [Example 176]", "viability at 65 h, 100 µM / %": 53.5}
{"MOLECULE": "COc1ncc(N(Cc2cc(C(F)F)[nH]n2)C(=O)Nc2ccc(F)c(C#N)c2)cn1 [Example 155]", "viability at 65 h, 100 µM / %": 97}

## Input Could you share which viability at 65 h, 100 µM value was measured for COc1ccc(N(Cc2n[nH]c3c2CN(C)CC3)C(=O)Nc2ccc(F)c(Cl)c2)cc1 [Example 37] ?
## Output 22.4

## Input Could you share which viability at 65 h, 100 µM value was measured for COc1cc(N(Cc2cc(C(F)F)[nH]n2)C(=O)Nc2ccc(F)c(C(F)F)c2)cnn1 [Example 201] ?
## Output 107

## Input Could you share which viability at 65 h, 100 µM value was measured for O=C(Nc1ccc(F)c(Cl)c1)N(Cc1n[nH]c2c1CCCC2)c1ccon1 [Example 132] ?
## Output 81.9

###

# TARGET SYSTEM: Protein (Hepatitis B virus genotype D subtype ayw)
# Sequence (P03146 whole entry): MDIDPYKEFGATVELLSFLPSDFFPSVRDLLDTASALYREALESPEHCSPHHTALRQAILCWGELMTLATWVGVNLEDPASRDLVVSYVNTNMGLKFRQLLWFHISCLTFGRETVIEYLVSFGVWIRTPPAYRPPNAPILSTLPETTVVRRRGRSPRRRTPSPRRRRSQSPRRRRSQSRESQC
# PROCEDURE TEXT: Protein inhibition rate / EC50 (Table 1, no method described)
MEASURED METRIC: EC50 (µM)
Please give a number only; it is taken to be in µM.

{"COMPOUND": "COc1ccc(N(Cc2n[nH]c3c2CCCO3)C(=O)Nc2ccc(F)c(Cl)c2)cn1 [Example 63]", "TARGET SYSTEM": "Protein (Hepatitis B virus genotype D subtype ayw)", "MEASUREMENT": 2.6}
{"COMPOUND": "O=C(Nc1ccc(F)c(Cl)c1)N(Cc1n[nH]c2c1CCCC2)c1ccon1 [Example 132]", "TARGET SYSTEM": "Protein (Hepatitis B virus genotype D subtype ayw)", "MEASUREMENT": 5.3}
{"COMPOUND": "COc1ccc(N(Cc2n[nH]c3c2CCC3)C(=O)Nc2ccc(F)c(Cl)c2)cc1 [Example 46]", "TARGET SYSTEM": "Protein (Hepatitis B virus genotype D subtype ayw)", "MEASUREMENT": 4.3}
{"COMPOUND": "COc1ccc(N(Cc2n[nH]c3c2CCC3)C(=O)Nc2ccc(F)c(Cl)c2)cn1 [Example 41]", "TARGET SYSTEM": "Protein (Hepatitis B virus genotype D subtype ayw)", "MEASUREMENT": 2.6}
{"COMPOUND": "COc1ccc(N(Cc2n[nH]c3c2CC(C(F)(F)F)CC3)C(=O)Nc2ccc(F)c(Cl)c2)cn1 (centres unmarked) [Example 62]", "TARGET SYSTEM": "Protein (Hepatitis B virus genotype D subtype ayw)", "MEASUREMENT": 6.9}
{"COMPOUND": "COc1ccc(N(Cc2n[nH]c3c2CCCC3)C(=O)Nc2ccc(F)c(Cl)c2)cc1 [Example 32]", "TARGET SYSTEM": "Protein (Hepatitis B virus genotype D subtype ayw)", "MEASUREMENT": 9.4}
{"COMPOUND": "O=C(O)c1ccc(N(Cc2n[nH]c3c2CCCC3)C(=O)Nc2ccc(F)c(Cl)c2)cc1 [Example 131]", "TARGET SYSTEM": "Protein (Hepatitis B virus genotype D subtype ayw)", "MEASUREMENT": 3.8}
{"COMPOUND": "COc1ccc(N(Cc2n[nH]c3c2CCCC3)C(=O)Nc2ccc(F)c(Cl)c2)cn1 [Example 42]", "TARGET SYSTEM": "Protein (Hepatitis B virus genotype D subtype ayw)", "MEASUREMENT": 4.3}
{"COMPOUND": "COc1cc(N(Cc2n[nH]c3c2CCCC3)C(=O)Nc2ccc(F)c(Cl)c2)ccn1 [Example 54]", "TARGET SYSTEM": "Protein (Hepatitis B virus genotype D subtype ayw)", "MEASUREMENT": 3.5}
{"COMPOUND": "COc1ccc(N(Cc2n[nH]c(C)c2C)C(=O)Nc2ccc(F)c(Cl)c2)cn1 [Example 57]", "TARGET SYSTEM": "Protein (Hepatitis B virus genotype D subtype ayw)", "MEASUREMENT": 2}

## Input Find EC50 (Protein (Hepatitis B virus genotype D subtype ayw)) for the entry O=C(Nc1ccc(F)c(Cl)c1)N(Cc1n[nH]c2c1CCCC2)c1ccc(=O)[nH]c1 [Example 14]
## Output 7.3

## Input Find EC50 (Protein (Hepatitis B virus genotype D subtype ayw)) for the entry COc1ccc(N(Cc2n[nH]c3c2C2CCC3C2)C(=O)Nc2ccc(F)c(Cl)c2)cn1 (centres unmarked) [Example 51]
## Output 3.4

## Input Find EC50 (Protein (Hepatitis B virus genotype D subtype ayw)) for the entry O=C(Nc1cc(F)c(F)c(F)c1)c1ccc(F)c(S(=O)(=O)N2CCC(O)CC2)c1 [NVR, reference compound]
## Output 3.6

## Input Find EC50 (Protein (Hepatitis B virus genotype D subtype ayw)) for the entry O=C(Nc1ccc(F)c(Cl)c1)N(Cc1n[nH]c2c1CCCC2)c1cc[nH]c(=O)c1 [Example 15]
## Output 1.4

## Input Find EC50 (Protein (Hepatitis B virus genotype D subtype ayw)) for the entry COc1ccc(N(Cc2n[nH]c3c2COCC3)C(=O)Nc2ccc(F)c(Cl)c2)cc1 [Example 38]
## Output 1.6

## Input Find EC50 (Protein (Hepatitis B virus genotype D subtype ayw)) for the entry COc1ccc(N(Cc2n[nH]c3ccccc23)C(=O)Nc2ccc(F)c(Cl)c2)cn1 [Example 43]
## Output 6.06

## Input Find EC50 (Protein (Hepatitis B virus genotype D subtype ayw)) for the entry COc1ccc(N(Cc2n[nH]c3c2CC(O)CC3)C(=O)Nc2ccc(F)c(Cl)c2)cn1 (centres unmarked) [Example 48]
## Output 6.4
